- PROTOCOL_TEXT: chemical genetic growth profiling, strain panel (AID 1159580);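 also: tested at 20 µM; growth read once vehicle control cultures reached saturation at 30 °C; 1 = growth at the plate median or of vehicle wells; lower values mean less growth of the strain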
- EXPERIMENTAL_PARAMETERS: S. cerevisiae deletion strains, growth OD, locus YNL153C, strain GIM3, active compounds read low
The campaign covered roughly 5,500 compounds. About 2,000 (36%) were called active. Inconclusive results (about 18%) are left out. This is one part of the list.
MEASURED_ATTRIBUTE: normalized growth

[[record]]
compound = "Cc1ccc(N=Cc2cccs2)cc1Cl"
measured_attribute = "normalized growth"
reported = 1

[[record]]
compound = "COc1cccc(Nc2nc3ccccc3s2)c1"
measured_attribute = "normalized growth"
reported = 0.799

[[record]]
compound = "CCCCc1nc(Cl)c(CO)n1Cc1ccc(-c2ccccc2-c2nn[nH]n2)cc1"
measured_attribute = "normalized growth"
reported = 1.01

[[record]]
compound = "CC(C)NCC(O)c1ccc(NS(C)(=O)=O)cc1 (stereo not drawn)"
measured_attribute = "normalized growth"
reported = 1.04

[[record]]
compound = "N#Cc1sccc1Br"
measured_attribute = "normalized growth"
reported = 1.02

[[record]]
compound = "COc1cc(-c2oc3cc(O)ccc3c(=O)c2O)cc(OC)c1OC"
measured_attribute = "normalized growth"
reported = 0.986

[[record]]
compound = "Cc1ccc(N=Nc2c(C)[nH]n(C)c2=O)cc1"
measured_attribute = "normalized growth"
reported = 0.945

[[record]]
compound = "N#C/C(=C\\N(CCS(=O)(=O)c1ccc(Cl)cc1)Cc1cccs1)S(=O)(=O)c1ccc(Cl)cc1"
measured_attribute = "normalized growth"
reported = 1.03

[[record]]
compound = "CN(C)S(=O)(=O)c1ccc2c(c1)/C(=C/c1cc3c([nH]1)CCCC3)C(=O)N2"
measured_attribute = "normalized growth"
reported = 0.977

[[record]]
compound = "Cc1ccc(-c2nn(-c3ccccc3)c(=O)c3ccccc23)cc1C"
measured_attribute = "normalized growth"
reported = 0.992

[[record]]
compound = "Cc1[nH]n(C)c(=O)c1N=Nc1ccc(Cl)cc1"
measured_attribute = "normalized growth"
reported = 0.894

[[record]]
compound = "O=C(O)c1nccnc1C(=O)O"
measured_attribute = "normalized growth"
reported = 1

[[record]]
compound = "CN1CCN(CC/C=C2/c3ccccc3Sc3ccc(S(=O)(=O)N(C)C)cc32)CC1"
measured_attribute = "normalized growth"
reported = 1.02

[[record]]
compound = "Cc1onc(-c2ccccc2)c1C(=O)NC1C(=O)N2[C@@H]1SC(C)(C)[C@@H]2C(=O)O (stereo partly drawn)"
measured_attribute = "normalized growth"
reported = 1.01

[[record]]
compound = "O=c1oc2c(O)c(O)cc3c(=O)oc4c(O)c(O)cc1c4c23"
measured_attribute = "normalized growth"
reported = 0.492

[[record]]
compound = "CCc1c(C(=O)OC)ncc2[nH]c3cc(OC)c(OC)cc3c12"
measured_attribute = "normalized growth"
reported = 0.984

[[record]]
compound = "CCc1cccc2c3c([nH]c12)C(CC)(CC(=O)O)OCC3 (stereo not drawn)"
measured_attribute = "normalized growth"
reported = 1.02

[[record]]
compound = "N#Cc1nccnc1Sc1ccc(Cl)cc1"
measured_attribute = "normalized growth"
reported = 0.988


----------
- PROTOCOL_TEXT: chemical genetic growth profiling, strain panel (AID 1159580);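 also: tested at 20 µM; growth read once vehicle control cultures reached saturation at 30 °C; 1 = growth at the plate median or of vehicle wells; lower values mean less growth of the strain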
- EXPERIMENTAL_PARAMETERS: S. cerevisiae deletion strains, growth OD, locus YJL129C, strain trk1, active compounds read low
Among all 5,500 compounds or so, about 2,000 (36%) were called active. Another 18% or so got no clear call; they are omitted. The list shows a part of the results.
MEASURED_ATTRIBUTE: normalized growth

[[record]]
compound = "COc1cnc(NS(=O)(=O)c2ccc(N)cc2)nc1"
reported = 0.986

[[record]]
compound = "CC(=O)Oc1cc2c(c(C)c1OC(C)=O)CC1OC13C2(C)CCC1(C)C2CC(C)(C(=O)O)CCC2(C)CCC13C (stereo not given)"
reported = 1.02

[[record]]
compound = "CCC1(CC)C(=O)C=CNC1=O"
reported = 0.993

[[record]]
compound = "COc1c2ccoc2cc2oc(C)cc(=O)c12"
reported = 1.01

[[record]]
compound = "CC(=O)Oc1ccccc1C(=O)O"
reported = 0.995

[[record]]
compound = "Cc1onc(-c2c(Cl)cccc2Cl)c1C(=O)N[C@@H]1C(=O)N2[C@@H]1SC(C)(C)[C@@H]2C(=O)O"
reported = 0.972

[[record]]
compound = "CO[C@H]1C[C@H](O[C@H]2[C@H](C)[C@@H](OC3O[C@H](C)C[C@H](N(C)C)[C@H]3OC(C)=O)[C@@H](C)C[C@]3(CO3)C(=O)[C@H](C)[C@@H](OC(C)=O)[C@@H](C)[C@@H](C)OC(=O)[C@@H]2C)O[C@@H](C)[C@@H]1OC(C)=O (stereo not given in full)"
reported = 0.979

[[record]]
compound = "O=C1c2ccccc2C(=O)C1c1ccccc1"
reported = 0.978

[[record]]
compound = "Cc1onc(-c2ccccc2)c1C(=O)NC1C(=O)N2[C@@H]1SC(C)(C)[C@@H]2C(=O)O (stereo not given in full)"
reported = 0.994

[[record]]
compound = "COc1cc2c(cc1O)CCNC2C (stereo not given)"
reported = 0.99

[[record]]
compound = "CC(=O)O[C@@H]1CC[C@]2(C)C3CC[C@]4(C)C(=O)CCC4C3CC[C@H]2C1 (stereo not given in full)"
reported = 0.942

[[record]]
compound = "COc1cc2c(cc1OC)[C@@]13CCN4CC5=CCOC6CC(=O)N2C1[C@H]6[C@H]5C[C@H]43 (stereo not given in full)"
reported = 0.99

[[record]]
compound = "CC(=O)O[C@H]1CC[C@]2(C)C3CC(=O)[C@]4(C)C(C(C)=O)=CCC4C3CC[C@H]2C1 (stereo not given in full)"
reported = 1.01

[[record]]
compound = "CCCCCCCCCCCCCCCCCCOCC(O)CO (stereo not given)"
reported = 0.984

[[record]]
compound = "C=C(C)[C@H]1Cc2c(ccc3c2O[C@@H]2COc4cc(OC)c(OC)cc4[C@@H]2C3=O)O1"
reported = 0.901

[[record]]
compound = "CNCC[C@@H](Oc1ccccc1)c1ccccc1"
reported = 0.99

[[record]]
compound = "CCN(CC)CCNC(=O)c1cc(Cl)c(N)cc1OC"
reported = 0.997

[[record]]
compound = "CO[C@@]1(NC(=O)Cc2cccs2)C(=O)N2C(C(=O)O)=C(COC(N)=O)CS[C@@H]21"
reported = 0.914

[[record]]
compound = "NCCc1cc(O)c(O)cc1O"
reported = 1.09

[[record]]
compound = "CC(=O)O[C@H]1CC[C@]2(C)C3CC[C@@]4(C)C(CC5O[C@@]6(CCC(C)CO6)[C@@H](C)C54)C3CC[C@@H]2C1 (stereo not given in full)"
reported = 1.03

[[record]]
compound = "COc1cc2cc3c4cc(OC)c(OC)cc4cc[n+]3c(C)c2cc1OC"
reported = 1.02

[[record]]
compound = "NC[C@H]1O[C@H](O[C@H]2[C@H](O)[C@@H](O[C@H]3O[C@H](CO)[C@@H](O)[C@H](N)[C@H]3O)[C@H](N)C[C@@H]2N)[C@H](N)C[C@@H]1O"
reported = 1

[[record]]
compound = "CC1=CC2C(C(C)C)CCC(C)(O)C2CC1 (stereo not given)"
reported = 1.01

[[record]]
compound = "CC1=NN(c2ccccc2)C(=O)C1"
reported = 0.985

[[record]]
compound = "CC(=O)NS(=O)(=O)c1ccc(NC(=O)c2ccccc2C(=O)O)cc1"
reported = 1.03

